- target-of-assay: T1, parental PvRBP2b_(169-470) (Plasmodium vivax reticulocyte-binding protein 2b, N-terminal domain) (Plasmodium vivax strain Salvador I, UniProt A5K736)
- T1 construct: TEV cleavage site between the His tag and the protein; pPROEX HTb vector; also called parental construct; parental protein
- assay-overview: BLI; Octet RED96; human mAb loaded on anti-human IgG Fc capture sensor tips; parental PvRBP2b169-470 or design in solution, 2-fold series 0.63 to 10 nM; 25 °C; PBS, 0.1% bovine serum albumin, 0.05% Tween-20; global fit 1:1 model; two independent experiments
- condition-description: both partners purified
endpoint-label: koff

• human mAb 258259 (antibody, V domains shown, naturally acquired human mAb, recombinant IgG captured by its Fc; source: Expi293 HEK cells, transfected, purified (protein A, SEC)) VH: EVQLLESGGGLVRPGGSQRLSCAASGFTFTPYAMTWVRQAPGKGLEWLSTISGSGGSTYYADSVKGRFTISRDNSKNMLYLQMNSLTAEDTALYYCTKDKDEYTFGHNAFDVWGQGTMVTVSS VL: SYELTQAPSVSVAPGQTARITCGGDNIGRKTVNWYQQKPGQAPVLVIYYDNDRPSGIPERFSGSNSGNMATLSISRVEVGDEADYYCQVWDSNNDHPVFGGGTKLTVV = < 1e-07 s⁻¹
• human mAb 253245 (antibody, V domains shown, naturally acquired human mAb, recombinant IgG captured by its Fc; source: Expi293 HEK cells, transfected, purified (protein A, SEC)) VH: EVQLVQSGAEVKKPGSSMKVSCKASGGTFNRYVFSWVRQAPGQGLEWMGGILPILETTYYAKNFKGRVTITADESTSTVYMELSSLTSEDTAVYFCARDEHDYVWGSYRPSLTGPWGQGTLVTVSS VL: QSALTQPPSTSGSPGQSVTISCTGTGIDVGGFSYVSWFQYHPGKAPKLIIFEVTKRPSGVPDRFSGSKSGNTASLTISGLQADDEAEYYCSSYAVNNNFVFGTGTKVTVL = < 1e-07 s⁻¹
• human mAb 251249 (antibody, V domains shown, naturally acquired human mAb, recombinant IgG captured by its Fc; source: Expi293 HEK cells, transfected, purified (protein A, SEC)) VH: EVQLVESGGGLVKPGGSLRLSCEASGFLFSSYSMNWVRQAPGKGLEWVSSITGYSSEVFYTDSVKGRFTVSRDNSKNSLYLQMDSLRAEDTAVYYCARALTIFGVVITDYWFFDLWGRGTLVTVSS VL: EIVLTQSPATLSLSPGDRATLSCRASQSVTTFLAWYQQKPGQAPRLLIYDVSNRATGIPARFSGSGSGTDFTLTISSLEPEDFAVYYCQQRSNWGLTFGGGTKVEIK = < 1e-07 s⁻¹
